Values from the OligoGym collection

The reader will find reported calcium oscillation score values listed item by item below.
# system: Tau
# test_summary: rat primary cortical neurons, FLIPR, 25 uM ASO
Bases are written 5' to 3'; sugars and linkages follow in the same order, as letters with counts (s phosphorothioate, o phosphodiester; PS: all linkages phosphorothioate). The collection does not say whether C is 5-methylated. l = locked nucleic acid (LNA); d = 2'-deoxy (DNA)

AGCAGGTTAAGTGATTAACC (sugars l3 d14 l3, PS) = 16 % of control
CTTTATTTCCAAATTCACT (sugars l3 d11 l5, PS) = 121 % of control
CATATTCTTCCCTTAATA (sugars l3 d13 l2, PS) = 81.1 % of control
CAGGGAGGCAGACACCTCGT (sugars l3 d14 l3, PS) = 50.9 % of control
TTGATAAAACATCCCT (sugars l4 d8 l4, PS) = 65 % of control

Task item: Specify measured calcium oscillation score for CTTTTCTTAAAGTTCAC (sugars l4 d9 l4, PS) .
Reply: 82.2 % of control

---

# system: Tau
# test_summary: rat primary cortical neurons, FLIPR, 25 uM ASO
Bases are written 5' to 3'; sugars and linkages follow in the same order, as letters with counts (s phosphorothioate, o phosphodiester; PS: all linkages phosphorothioate). The collection does not say whether C is 5-methylated. l = locked nucleic acid (LNA); d = 2'-deoxy (DNA)
The reader will find reported calcium oscillation score values listed item by item below.

Worked examples, 5 sequences total:
GGACGTTGCTAAGATC (sugars l3 d10 l3, PS) = 3.32 % of control
CATATTCTTCCCTTAATAA (sugars l3 d13 l3, PS) = 68 % of control
CACTTTACACATTAAATTTA (sugars l4 d12 l4, PS) = 60.9 % of control
GTTTTTTAACTCCCAAC (sugars l4 d9 l4, PS) = 74.1 % of control
GTTTGTAGACTATTT (sugars l3 d9 l3, PS) = 0 % of control

Task item: Specify measured calcium oscillation score for ATGACCTCAACTCTACCT (sugars l3 d13 l2, PS) .
Reply: 61 % of control

---

The reader will find reported calcium oscillation score values listed item by item below.
# system: Tau
# test_summary: rat primary cortical neurons, FLIPR, 25 uM ASO
Bases are written 5' to 3'; sugars and linkages follow in the same order, as letters with counts (s phosphorothioate, o phosphodiester; PS: all linkages phosphorothioate). The collection does not say whether C is 5-methylated. l = locked nucleic acid (LNA); d = 2'-deoxy (DNA)

CCCTGAAACCATTAACT (sugars l3 d12 l2, PS) = 69 % of control
GTCCCGAGCCAAAG (sugars l3 d8 l3, PS) = 0 % of control
CTCAAATCAAACTAATATT (sugars l4 d11 l4, PS) = 98.6 % of control
TCTCAAATCAAACTAATAT (sugars l4 d11 l4, PS) = 58.1 % of control

We now examine a further sequence.
Task item: Specify measured calcium oscillation score for TCATTTTTTATTCATAACTT (sugars l4 d12 l4, PS) .
Reply: 62.3 % of control

---

# system: Tau
# test_summary: rat primary cortical neurons, FLIPR, 25 uM ASO
Bases are written 5' to 3'; sugars and linkages follow in the same order, as letters with counts (s phosphorothioate, o phosphodiester; PS: all linkages phosphorothioate). The collection does not say whether C is 5-methylated. l = locked nucleic acid (LNA); d = 2'-deoxy (DNA)
property: calcium oscillation score

Worked examples, 3 sequences total:
CCGAACTGCGAGGAGC (sugars l3 d10 l3, PS) = 5.43 % of control
TCTCTAATTGTCCAATA (sugars l4 d9 l4, PS) = 69 % of control
CACATGCACCCAACTCTA (sugars l2 d13 l3, PS) = 60.2 % of control

Task item: Specify measured calcium oscillation score for TCCATTAATTTAGCCA (sugars l4 d10 l2, PS) .
Reply: 54.1 % of control

Task item: Specify measured calcium oscillation score for ATTTTACTACTCTCTTT (sugars l4 d9 l4, PS) .
Reply: 82 % of control

Task item: Specify measured calcium oscillation score for TGATTAACCAATTAACCGAA (sugars l3 d14 l3, PS) .
Reply: 2.59 % of control
